- Test system: Pasteurella multocida CVCC399
- protocol details: in vitro susceptibility, MIC by mini broth dilution
- Type: cell-based
- condition info: strain CVCC399
measurement kind: MIC values, Pasteurella multocida CVCC399 (ug/mi)
All answers are understood in ug/mi, so give the number only.

CCCN1C[C@H](C)[C@@H](O)[C@](C)(O)[C@@H](CC)OC(=O)[C@H](C)[C@@H](O[C@H]2C[C@@](C)(OC)[C@](O)(CNC(CC)C(=O)O)[C@H](C)O2)[C@H](C)[C@@H](O[C@@H]2O[C@H](C)C[C@H](N(C)C)[C@H]2O)[C@](C)(O)C[C@H]1C (stereo partly shown) :: 1
CCCN1C[C@H](C)[C@@H](O)[C@](C)(O)[C@@H](CC)OC(=O)[C@H](C)[C@@H](O[C@H]2C[C@@](C)(OC)[C@](O)(CNC(=O)C(F)(F)F)[C@H](C)O2)[C@H](C)[C@@H](O[C@@H]2O[C@H](C)C[C@H](N(C)C)[C@H]2O)[C@](C)(O)C[C@H]1C [syzx-137] :: 2
CC[C@H]1OC(=O)[C@H](C)[C@@H](O[C@H]2C[C@@](C)(OC)[C@](O)(CNCCCN3CCOCC3)[C@H](C)O2)[C@H](C)[C@@H](O[C@@H]2O[C@H](C)C[C@H](N(C)C)[C@H]2O)[C@](C)(O)C[C@@H](C)NC[C@H](C)[C@@H](O)[C@]1(C)O :: 0.5

Next item in the queue.
query: Endpoint output: MIC values, Pasteurella multocida CVCC399 of "CC[C@H]1OC(=O)[C@H](C)[C@@H](O[C@H]2C[C@@](C)(OC)[C@](O)(CNCCCC(=O)O)[C@H](C)O2)[C@H](C)[C@@H](O[C@@H]2O[C@H](C)C[C@H](N(C)C)[C@H]2O)[C@](C)(O)C[C@@H](C)NC[C@H](C)[C@@H](O)[C@]1(C)O" . Value?
result: 2
